Recorded viability, T/C, one value per entry.
test system: 677734-321-R-J1-PDC complex spheroid viability; test: Anticancer human tumor 677734-321-R-J1-PDC patient-derived soft tissue sarcoma cell line growth inhibition [POLQ]; conditions: second compound 10 µM; first compound 0.0316 µM; hits give low values;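 also: spheroids exposed to compounds for one week; 100% = vehicle DMSO treated spheroids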
Readout: viability, T/C (%)

{"columns": ["Molecule", "Reported Value"],
 "data": [
  ["COc1cc(C2c3cc4c(cc3C(OC3OC5COC(C)OC5C(O)C3O)C3COC(=O)C23)OCO4)cc(OC)c1O (centres undefined) + COC1C(OC(N)=O)C(O)C(Oc2ccc3c(O)c(NC(=O)c4ccc(O)c(CC=C(C)C)c4)c(=O)oc3c2C)OC1(C)C", 110],
  ["CCc1cc2c(N3CCc4c(cc(Cn5ccnc5)cc4-c4cn(C)nc4C(F)(F)F)C3=O)ccnc2c(OC)n1 + Cc1cccc(N(C)C(=O)C2C(O)CCN2c2nc(C)cc(C(F)(F)F)c2C#N)c1", 87.9],
  ["O=C(c1cc(Cc2n[nH]c(=O)c3ccccc23)ccc1F)N1CCN(C(=O)C2CC2)CC1 + Nc1ccc(C#CCN(C(=O)Cc2ncc(C(F)(F)F)cc2C(F)(F)F)c2ccc(F)cc2)nn1", 109],
  ["COc1cc(C2c3cc4c(cc3C(OC3OC5COC(C)OC5C(O)C3O)C3COC(=O)C23)OCO4)cc(OC)c1O (centres undefined) + Cc1cccc(N(C)C(=O)C2C(O)CCN2c2nc(C)cc(C(F)(F)F)c2C#N)c1", 107]
]}
